The reported numbers originate from PubChem BioAssay (NCI).

system: RPMI-8226 leukemia; experiment: NCI tumour cell line growth inhibition, 48 h
For each entry below, report its TGI value.

Prompt: Write down the reported TGI of CCCCCc1c(C)[nH]c(/C=C2\N=C(c3ccc[nH]3)C=C2CC)c1C , test system: RPMI-8226 leukemia.
Completion: 0.0962 µM

Prompt: Also, C=CCn1c(=O)n(CC=C)c(=O)n(CC=C)c1=O please.
Completion: > 100 µM

Prompt: Also, C=CCN1C[C@H](C)N([C@H](c2ccc(C(=O)N(CC)CCO)cc2)c2cccc(OC)c2)C[C@H]1C please.
Completion: > 100 µM

Prompt: Also, CCN(CC)CCNCC(=O)Oc1ccc(/C=C/C(=O)CC(=O)/C=C/c2ccc(OC(=O)CNCCN(CC)CC)c(OC)c2)cc1OC please.
Completion: 6.01 µM

Prompt: Also, CCOC(=O)C1(C(=O)OCC)CN(CC)CN(c2ccccc2)C1 please.
Completion: 45 µM

Prompt: Also, COc1ccc2c3c1O[C@H]1C(O)CCC4(O)[C@@H](C2)NCC[C@]314 (some centres not stated) please.
Completion: > 100 µM

Prompt: Also, CSC1=C(SC)SC(=C2SC3=C(SC(=C4SCCS4)S3)S2)S1 please.
Completion: > 100 µM

----------
system: SK-MEL-5 melanoma; assay: NCI tumour cell line growth inhibition, 48 h
For each entry below, report its TGI value.

Prompt: // lookup TGI for COC(=O)C(=C/c1ccc(OC)cc1)/C(C(=O)O)=C(/C)c1ccccc1
Completion: > 100 µM

Prompt: Also, CCN1c2nc3ccccc3nc2N(CC)c2nc3ccccc3nc21 please.
Completion: > 100 µM

Prompt: Also, O=C(c1ccccc1)c1c(-c2ccccc2)[nH]n(-c2ccc([N+](=O)[O-])cc2)c(=O)c1=O please.
Completion: > 100 µM
